Details: 318.15 K; 101 kPa; Liquid
Numbers after ± are expanded uncertainties.
viscosity listing for selected compounds.
Answers without a unit are incomplete; give the number and then its unit.

Some compounds with known viscosity results, for comparison:
{"columns": ["compound", "parameter", "result"],
 "data": [
  ["C=CC#N [acrylonitrile]", "viscosity", "0.284 ± 0.037 mPa·s"],
  ["O=Cc1ccccc1 [benzaldehyde]", "viscosity", "1.12 ± 0.11 mPa·s"],
  ["O=CC=Cc1ccccc1 [(E)-3-phenyl-2-propanal]", "viscosity", "2.296 ± 0.21 mPa·s"]
]}

From here, focus on the item given below.
Write down viscosity measured for item COc1ccc(C=O)cc1 [4-methoxybenzaldehyde]
2.232 ± 0.2 mPa·s

###

Settings: 308.15 K; 101 kPa; Liquid
Numbers after ± are expanded uncertainties.
parameter: viscosity
Answers without a unit are incomplete; give the number and then its unit.

{"columns": ["compound", "viscosity"],
 "data": [
  ["COc1ccc(C=O)cc1 [4-methoxybenzaldehyde]", "2.83 ± 0.25 mPa·s"]
]}

Write down viscosity measured for item O=Cc1ccccc1 [benzaldehyde]
1.224 ± 0.12 mPa·s

Write down viscosity measured for item O=CC=Cc1ccccc1 [(E)-3-phenyl-2-propanal]
2.688 ± 0.24 mPa·s

Write down viscosity measured for item C=CC#N [acrylonitrile]
0.307 ± 0.039 mPa·s

###

mass density listing for selected molecules.
Conditions: 308.15 K; 101 kPa; Liquid
± gives the expanded uncertainty stated by the source.
Answers without a unit are incomplete; give the number and then its unit.

Some molecules with known mass density results, for comparison:
{"columns": ["molecule", "result"],
 "data": [
  ["C=CC#N [acrylonitrile]", "788 ± 2 kg/m3"],
  ["O=Cc1ccccc1 [benzaldehyde]", "1034 ± 2 kg/m3"],
  ["O=CC=Cc1ccccc1 [(E)-3-phenyl-2-propanal]", "1039 ± 3 kg/m3"]
]}

From here, focus on the item given below.
Write down mass density measured for item COc1ccc(C=O)cc1 [4-methoxybenzaldehyde]
1112 ± 3 kg/m3

###

Details: 318.15 K; 101 kPa; Liquid
mass density listing for selected compounds.
Give the value, in units of kg/m3, as a plain number.

{"columns": ["compound", "unit-name", "mass density"],
 "data": [
  ["COc1ccc(C=O)cc1", "kg/m3", 1105]
]}

Write down mass density measured for item C=CC#N
783

Write down mass density measured for item O=Cc1ccccc1
1027

Write down mass density measured for item O=CC=Cc1ccccc1 [(E)-3-phenyl-2-propanal]
1032

###

Details: 298.15 K; 101 kPa; Liquid
viscosity listing for selected compounds.
Give the value, in units of mPa·s, as a plain number.

Some compounds with known viscosity results, for comparison:
{"columns": ["compound", "viscosity, mPa·s"],
 "data": [
  ["C=CC#N", 0.344],
  ["O=Cc1ccccc1", 1.399],
  ["O=CC=Cc1ccccc1 [(E)-3-phenyl-2-propanal]", 3.478]
]}

From here, focus on the item given below.
Write down viscosity measured for item COc1ccc(C=O)cc1
3.706

###

Settings: 298.15 K; 101 kPa; Liquid
Numbers after ± are expanded uncertainties.
parameter: mass density
Answers without a unit are incomplete; give the number and then its unit.

Some compounds with known mass density results, for comparison:
{"columns": ["compound", "mass density"],
 "data": [
  ["O=Cc1ccccc1", "1041 ± 2 kg/m3"],
  ["O=CC=Cc1ccccc1 [(E)-3-phenyl-2-propanal]", "1046 ± 2 kg/m3"],
  ["COc1ccc(C=O)cc1", "1120 ± 3 kg/m3"]
]}

Write down mass density measured for item C=CC#N
794 ± 2 kg/m3
